Biological target: EGFR L858R (Homo sapiens, UniProt P00533, L858R)
Construct: purchased Carna Bio
Sequence (P00533 25-1210 L858R): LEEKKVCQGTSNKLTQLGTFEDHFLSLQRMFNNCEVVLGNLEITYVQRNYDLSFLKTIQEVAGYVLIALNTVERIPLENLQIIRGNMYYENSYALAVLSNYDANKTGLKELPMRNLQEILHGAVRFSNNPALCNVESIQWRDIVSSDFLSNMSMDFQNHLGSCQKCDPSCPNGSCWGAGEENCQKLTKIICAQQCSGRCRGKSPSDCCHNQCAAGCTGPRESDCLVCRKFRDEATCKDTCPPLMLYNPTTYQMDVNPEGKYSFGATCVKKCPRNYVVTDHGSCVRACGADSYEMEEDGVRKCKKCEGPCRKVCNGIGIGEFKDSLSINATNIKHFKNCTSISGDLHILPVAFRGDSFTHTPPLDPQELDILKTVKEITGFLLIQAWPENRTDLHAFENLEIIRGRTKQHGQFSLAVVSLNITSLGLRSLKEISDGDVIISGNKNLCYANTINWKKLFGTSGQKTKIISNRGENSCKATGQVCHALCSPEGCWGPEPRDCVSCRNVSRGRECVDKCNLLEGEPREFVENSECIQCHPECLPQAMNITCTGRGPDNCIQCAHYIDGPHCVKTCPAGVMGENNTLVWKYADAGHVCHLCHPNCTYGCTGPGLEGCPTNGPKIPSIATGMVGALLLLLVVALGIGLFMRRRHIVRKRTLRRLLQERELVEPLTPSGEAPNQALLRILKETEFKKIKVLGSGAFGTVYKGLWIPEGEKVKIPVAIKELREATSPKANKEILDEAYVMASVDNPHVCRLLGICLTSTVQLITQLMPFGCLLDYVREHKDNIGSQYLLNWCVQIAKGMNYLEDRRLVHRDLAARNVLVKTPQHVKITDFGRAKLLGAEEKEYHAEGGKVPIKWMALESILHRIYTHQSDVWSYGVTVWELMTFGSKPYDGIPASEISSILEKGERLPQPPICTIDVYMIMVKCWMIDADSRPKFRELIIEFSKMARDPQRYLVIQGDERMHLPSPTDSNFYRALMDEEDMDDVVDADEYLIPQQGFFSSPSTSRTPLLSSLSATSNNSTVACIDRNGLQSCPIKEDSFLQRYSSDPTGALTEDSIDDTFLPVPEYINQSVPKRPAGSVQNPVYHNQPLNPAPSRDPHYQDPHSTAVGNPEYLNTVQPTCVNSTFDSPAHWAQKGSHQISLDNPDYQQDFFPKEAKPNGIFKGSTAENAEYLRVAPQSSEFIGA
Assay: Inhibition of EGFR L858R biochemical enzymatic activity (HTRF)
Conditions: 1 mM ATP, 1 h, room temperature, read-out: IC50 (nM) @L858R
Listed below: log10 IC50 values for each entry.
Log10 applied to IC50; unit prior to transform: nM.

Answered cases to consult:
MOLECULE	log10 IC50
Cn1ncc2c1OCCN1CC3CCC(C3)(C1)n1c(nc3ccc(N4CCC(N5CC(F)C5)C4)cc31)NC(=O)c1cc-2c(=O)n(C)c1 (single isomer, unassigned) [Example A94A]	3.68
Cn1ncc2c1OCCN1CCCC(C)(C1)n1c(nc3ccc(N4CCOCC4)cc31)NC(=O)c1cc-2c(=O)n(C)c1 (stereo not drawn)	3.33
C[C@@H]1CCCOc2c(cnn2C)-c2cc(cn(C)c2=O)C(=O)Nc2nc3ccc(N4CCN(C5CC5)CC4)cc3n2C1	1.60
CN1CCCC12CN(c1ccc3nc4n(c3c1)C13CCC(CN(CCOc5c(cnn5C)-c5cc(cn(C)c5=O)C(=O)N4)C1)C3)C2 (single isomer, unassigned) [Example A76A]	3.46

Consider the additional molecule presented here.
// log10 IC50 value for Cn1ncc2c1OCCN1CC3CCC(C3)(C1)n1c(nc3ccc(N4CCC(N5CC(F)C5)C4)cc31)NC(=O)c1cc-2c(=O)n(C)c1 (single isomer, unassigned) [Example A94B] : 1.46
